test: APR_HepG2_MitoMass_1hr: Apredica 1-hour HepG2 Assay for Mitochondrial Mass (AID 2282674); details: high-content imaging, actives raise or lower the signal
Calls of active or inactive are those of the source. How the source made its calls: active means hit-call score of the fitted dose curve at least 0.9, where 1 is the maximum; inactive means score below 0.9.
Response enum: active, inactive

// known answers, use as guide
>>> class_assignment("CCCN(CCC)c1c([N+](=O)[O-])cc(C(F)(F)F)c(N)c1[N+](=O)[O-]")
"active"
>>> class_assignment("CCNc1nc(N)nc(Cl)n1")
"inactive"

Call for entry CCCOC(=O)NCCCN(C)C :
inactive

Let us now turn to COc1c(Cl)ccc(Cl)c1C(=O)O
inactive

Let us now turn to COC(=O)c1ccccc1S(=O)(=O)NC(=O)Nc1nc(OC(F)F)cc(OC(F)F)n1
inactive

Let us now turn to CCCCOC(=O)[C@@H](C)Oc1ccc(Oc2ccc(C(F)(F)F)cn2)cc1
inactive
